Quick reference: Percent Similarity Score (KD on hN) of the listed items.
Target: T1, human NGF (human, UniProt P01138 122-241)
T1 construct: also called human Nerve Growth Factor; hN
T1 chain: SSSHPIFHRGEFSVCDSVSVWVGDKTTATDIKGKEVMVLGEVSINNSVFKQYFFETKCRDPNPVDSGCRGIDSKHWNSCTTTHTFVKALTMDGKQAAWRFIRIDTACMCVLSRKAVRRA
Test: SPR (Biacore T200), 100 nM mAb on NGF chip, similarity to parent mAb
quantityMeasured: Percent Similarity Score (KD on hN) (%)

1. can48L2VL_L99A (antibody, V domains shown, CDR scanning mutant of ZTS-842 (48L2)) VH: EVQLVESGGDLVKPGGSLRLSCVASGFTFSTYGINWVRQAPGKGLQWVAYISSGGSSTYYADPVKGRFTISRDDAKNMLYLQMNSLRAEDTAIYYCAGSRYTYAYGGGYEFHFWGQGTLVTVSS VL: QAVLNQPASVSGALGQKVTISCSGSTMDIDIFGVSWYQQLPGKAPKLLVDSDGDRPSGIPDRFSGSRSGNSGTLTITGLQAEDEADYHCQSGDSTLGAAAIFGGGTHVTVL	99.8
2. can48L2VL_A98L (antibody, V domains shown, CDR scanning mutant of ZTS-842 (48L2)) VH: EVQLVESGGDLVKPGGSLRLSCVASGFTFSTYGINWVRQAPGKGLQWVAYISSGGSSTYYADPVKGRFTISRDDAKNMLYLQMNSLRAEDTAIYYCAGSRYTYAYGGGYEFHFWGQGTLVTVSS VL: QAVLNQPASVSGALGQKVTISCSGSTMDIDIFGVSWYQQLPGKAPKLLVDSDGDRPSGIPDRFSGSRSGNSGTLTITGLQAEDEADYHCQSGDSTLGLLAIFGGGTHVTVL	99.8
3. can9L12VH_H111A (antibody, V domains shown) VH: EVQLVESGGDLVKPGGSLRLSCVASGFTFSSHGMHWVRQSPGKGLQWVAVINSGGSSTYYTDAVKGRFTISRDNAKNTVYLQMNSLRAEDTAMYYCAKESVGGWEQLVGPAFDYWGQGTLVIVSS VL: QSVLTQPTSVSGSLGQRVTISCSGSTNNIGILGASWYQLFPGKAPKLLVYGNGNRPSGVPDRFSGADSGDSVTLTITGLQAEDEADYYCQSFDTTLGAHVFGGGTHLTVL	2.79
